assay: Dynamic surface tension of aqueous solutions, maximum bubble pressure method; assay type: physicochemical; conditions: lowest surface tension in water; 1 b/s
Readout name: limiting γ (1 b/s) (Dyne/cm)
Expressed in Dyne/cm, but write only the number.

Requested field: limiting γ (1 b/s). Item: CCCCCCOC(=O)C(O)C(O)C(=O)OCCCCCC (racemic) [Example 9, Dihexyl-DL-tartrate]
59.0

Requested field: limiting γ (1 b/s). Item: CC(C)CCOC(=O)C(O)C(O)C(=O)OCCC(C)C (racemic) [Example 6, Diisoamyl-DL-tartrate]
35.7

Requested field: limiting γ (1 b/s). Item: CCCCCOC(=O)C(O)C(O)C(=O)OCCCCC (racemic) [Example 5, Dipentyl-DL-tartrate]
36.8

Requested field: limiting γ (1 b/s). Item: CC(C)(C)COC(=O)C(O)C(O)C(=O)OCC(C)(C)C (racemic) [Example 8, Dineopentyl-DL-tartrate]
35.5

Requested field: limiting γ (1 b/s). Item: CCC(C)COC(=O)C(O)C(O)C(=O)OCC(C)CC (racemic) [Example 7, Di(2-methyl-butyl)-DL-tartrate]
36.0

Requested field: limiting γ (1 b/s). Item: O=C(OCc1ccccc1)C(O)C(O)C(=O)OCc1ccccc1 (racemic) [Example 11, Dibenzyl-DL-tartrate]
68.1

Requested field: limiting γ (1 b/s). Item: CCC(C)OC(=O)C(O)C(O)C(=O)OC(C)CC (racemic) [Example 4, Di-sec-butyl-DL-tartrate]
35.0

----------
assay: Dynamic surface tension of aqueous solutions, maximum bubble pressure method; assay type: physicochemical; details: 0.1 wt % solution; 1 b/s
Could you please report measured γ (0.1 wt % solution) (1 b/s) for the items listed next?
Expressed in Dyne/cm, but write only the number.

Requested field: γ (0.1 wt % solution) (1 b/s). Item: CCC(C)COC(=O)C(O)C(O)C(=O)OCC(C)CC (racemic) [Example 7, Di(2-methyl-butyl)-DL-tartrate]
39.0

Requested field: γ (0.1 wt % solution) (1 b/s). Item: CC(C)COC(=O)C(O)C(O)C(=O)OCC(C)C (racemic) [Example 3, Diisobutyl-DL-tartrate]
50.6

Requested field: γ (0.1 wt % solution) (1 b/s). Item: CC(C)CCOC(=O)C(O)C(O)C(=O)OCCC(C)C (racemic) [Example 6, Diisoamyl-DL-tartrate]
35.4

Requested field: γ (0.1 wt % solution) (1 b/s). Item: CCC(C)OC(=O)C(O)C(O)C(=O)OC(C)CC (racemic) [Example 4, Di-sec-butyl-DL-tartrate]
52.2

Requested field: γ (0.1 wt % solution) (1 b/s). Item: CCCCCCOC(=O)C(O)C(O)C(=O)OCCCCCC (racemic) [Example 9, Dihexyl-DL-tartrate]
59.0

Requested field: γ (0.1 wt % solution) (1 b/s). Item: CCCCC(CC)COC(=O)C(O)C(O)C(=O)OCC(CC)CCCC (racemic) [Example 12, Di(2-ethylhexyl)-DL-tartrate]
69.8

Requested field: γ (0.1 wt % solution) (1 b/s). Item: CC(C)CC(C)OC(=O)C(O)C(O)C(=O)OC(C)CC(C)C (racemic) [Example 10, Di(4-methyl-2-pentyl)-DL-tartrate]
42.2

----------
assay: Dynamic surface tension of aqueous solutions, maximum bubble pressure method; format: physicochemical; conditions: lowest surface tension in water; 20 b/s
Readout name: limiting γ (20 b/s)
State the value with its unit after it.

Requested field: limiting γ (20 b/s). Item: CC(C)CCOC(=O)C(O)C(O)C(=O)OCCC(C)C (racemic) [Example 6, Diisoamyl-DL-tartrate]
40.3 Dyne/cm

Requested field: limiting γ (20 b/s). Item: CC(C)COC(=O)C(O)C(O)C(=O)OCC(C)C (racemic) [Example 3, Diisobutyl-DL-tartrate]
40.8 Dyne/cm

Requested field: limiting γ (20 b/s). Item: CCC(C)OC(=O)C(O)C(O)C(=O)OC(C)CC (racemic) [Example 4, Di-sec-butyl-DL-tartrate]
36.0 Dyne/cm

Requested field: limiting γ (20 b/s). Item: CCCCC(CC)COC(=O)C(O)C(O)C(=O)OCC(CC)CCCC (racemic) [Example 12, Di(2-ethylhexyl)-DL-tartrate]
71.3 Dyne/cm

Requested field: limiting γ (20 b/s). Item: CC(C)(C)COC(=O)C(O)C(O)C(=O)OCC(C)(C)C (racemic) [Example 8, Dineopentyl-DL-tartrate]
38.4 Dyne/cm

Requested field: limiting γ (20 b/s). Item: O=C(OCc1ccccc1)C(O)C(O)C(=O)OCc1ccccc1 (racemic) [Example 11, Dibenzyl-DL-tartrate]
72.5 Dyne/cm

Requested field: limiting γ (20 b/s). Item: CCCCCOC(=O)C(O)C(O)C(=O)OCCCCC (racemic) [Example 5, Dipentyl-DL-tartrate]
41.6 Dyne/cm

Source of measurements: patent US6423376B1
